Quick list: inhibition in vivo at 12.5 mg/kg per entry.
# System: stress-induced gastric ulcer
# assayComment: Anti-ulcer activity: water-immersion restraint stress-induced gastric ulcer in rats, oral (procedure of Takagi et al.)
# Assay type: in vivo, Male Sprague-Dawley rats
# recordedConditions: 12.5 mg/kg, oral, 30 minutes before restraint; rat; read-out: Inhibition (percent inhibition, ulcer index)
# Method: Some polyisoprene compounds according to the invention were tested to evaluate their anti-ulcer activity in comparison with Teprenone and Gefarnate as controls, in accordance with the procedure proposed by Takagi et al ["Japan. J. Pharmacol.", Vol. 18, page 9 (1968)]. Male Sprague-Dawley rats were used, each having the body weight of 183.9 to 234.5 g. The animals were deprived of food for 24 hours prior to the test. […] The ulcer index was determined as the sum of length (mm) of each erosion per rat. […]
# output: bare number, implied unit %

{"columns": ["compound", "targetOrTestSystem", "inhibition in vivo at 12.5 mg/kg / %"],
 "data": [
  ["CC(=CCSCCN)CCCC(C)CCCC(C)CCCC(C)C (stereo not drawn)", "stress-induced gastric ulcer", 9],
  ["CC(C)=CCCC(C)=CCCC(C)=CCCC(C)=CCN(CC=C(C)CCC=C(C)CCC=C(C)CCC=C(C)C)CC12CCCN1CCC2", "stress-induced gastric ulcer", 21.5],
  ["CC(C)=CCCC(C)=CCCC(C)=CCCC(C)=CCSCCNC(=O)CC12CCCN1CCC2", "stress-induced gastric ulcer", 9.4],
  ["CC(C)=CCCC(C)=CCCC(C)=CCCC(C)=CCCC(C)=CCCC(C)=CCCC(C)=CCCC(C)=CCCC(C)=CCCC(C)=CCSCCNC(=O)CC12CCCN1CCC2", "stress-induced gastric ulcer", 27.3],
  ["CC(C)=CCCC(C)=CCCC(C)=CCCC(C)=CCSCCN", "stress-induced gastric ulcer", -2.8]
]}

QUERY: Please indicate inhibition in vivo at 12.5 mg/kg recorded for CNC(=C[N+](=O)[O-])NCCSCC=C(C)CCC=C(C)CCC=C(C)CCC=C(C)C
RESULT: -7

QUERY: Please indicate inhibition in vivo at 12.5 mg/kg recorded for CC(C)=CCCC(C)=CCCC(C)=CCCC(C)=CCCC(C)=CCCC(C)=CCCC(C)=CCCC(C)=CCCC(C)=CCCC(C)=CCSCCN
RESULT: 11.1

QUERY: Please indicate inhibition in vivo at 12.5 mg/kg recorded for CC(C)=CCCC(C)=CCCC(C)=CCCC(C)=CCCC(C)=CCCC(C)=CCCC(C)=CCCC(C)=CCCC(C)=CCSCCN
RESULT: -3.1

QUERY: Please indicate inhibition in vivo at 12.5 mg/kg recorded for CC(C)=CCCC(C)=CCCC(C)=CCCC(C)=CCNCC12CCCN1CCC2
RESULT: 38.4
